Source of measurements: ChEMBL document CHEMBL3091428

System: Pichia kudriavzevii
Protocol Description: Antimicrobial activity against Candida krusei ATCC 6258 after 24 hrs by broth microdilution method
Assay type: functional
Settings: ATCC 6258, 24 h
Measured Metric: MIC (µg/mL)
Lab book: enter the figure in µg/mL, no units written.

Cc1ccc(Nn2c(SCC(=O)c3ccccc3)nc(C)c2C)cc1    400
COc1ccc(C(=O)CSc2nc(C)c(C)n2Nc2ccc(C)cc2)cc1    25

Now examine the next entry.
Q: Look at this molecule and give its reported MIC. COc1ccc(C(=O)CSc2nc(C)c(C)n2Nc2ccc(C)cc2)cc1OC
A: 50

----------
Entries and their measured MIC follow.
Test system: Nakaseomyces glabratus
Protocol Description: Antimicrobial activity against Candida glabrata ATCC 90030 after 24 hrs by broth microdilution method
Format: functional
Settings: ATCC 90030, 24 h
Lab book: enter the figure in µg/mL, no units written.

Cc1nc(SCC(=O)c2ccc(F)cc2)n(Nc2ccc(Cl)cc2)c1C    1600
COc1cccc(C(=O)CSc2nc(C)c(C)n2Nc2ccc(C)cc2)c1    400
Cc1nc(SCC(=O)c2ccc(Cl)cc2)n(Nc2ccc(Cl)cc2)c1C    800
COc1ccc(Nn2c(SCC(=O)c3cccc(F)c3)nc(C)c2C)cc1    400
Cc1ccc(Nn2c(SCC(=O)c3cccc(F)c3)nc(C)c2C)cc1    800
COc1cccc(C(=O)CSc2nc(C)c(C)n2Nc2ccc(Cl)cc2)c1    800

Now examine the next entry.
Q: Look at this molecule and give its reported MIC. Cc1nc(SCC(=O)c2ccc(F)c(F)c2)n(Nc2ccc(Cl)cc2)c1C
A: 100
